tested on: Pseudomonas aeruginosa UC-12120; assay: minimum inhibitory concentration (MIC) testing according to CLSI guidelines, Pseudomonas aeruginosa; type: cell-based; settings: Pseudomonas aeruginosa, UC12120; UC-12120, wild-type, labeled as 1091-05; overnight incubation; lower of duplicate values; read-out: AB-MBT: Pseudomonas aeruginosa 1091-05: MIC (MstRcn)
OBSERVABLE: MIC (µg/mL)

Example entries and their recorded answers appear below.
- SMILES_TEXT: "CC(C)(O/N=C(\\C(=O)N[C@@H]1C(=O)N(S(=O)(=O)[O-])[C@@H]1CNC(=O)c1cc(=O)c(O)cn1O)c1csc(N)n1)C(=O)[O-].[Na+].[Na+]"
  MIC (µg/mL): 0.5
- SMILES_TEXT: "Nc1nc(/C(=N/OC2(C(=O)O)CCC2)C(=O)N[C@@H]2C(=O)N(S(=O)(=O)O)[C@@H]2CNC(=O)c2cc(=O)c(O)cn2O)cs1"
  MIC (µg/mL): 0.25
- SMILES_TEXT: "CC(C)(O/N=C(\\C(=O)N[C@@H]1C(=O)N(S(=O)(=O)O)[C@@H]1COC(=O)c1cc(-c2cc(=O)c(O)c[nH]2)no1)c1csc(N)n1)C(=O)O"
  MIC (µg/mL): 4

I: CC(C)(O/N=C(\C(=O)N[C@@H]1C(=O)N(S(=O)(=O)O)[C@@H]1CNC(=O)c1cccc(S(=O)(=O)NCc2cc(=O)c(O)cn2O)c1)c1csc(N)n1)C(=O)O
II: CC(C)(O/N=C(\C(=O)N[C@@H]1C(=O)N(S(=O)(=O)O)[C@@H]1COC(=O)c1ccnc(-c2cc(=O)c(O)c[nH]2)n1)c1csc(N)n1)C(=O)O
Input line: When the recorded MIC values are compared, which is smaller: that of I or that of II ? Lab log: write the label of the selected item as the result.
Output line: I
